test: S. cerevisiae growth modulation with rapamycin, primary screen, strain BY4716, OD600, 96 h (AID 1091); details: higher = more signal, called active from +8 up or from −8 down; also: test concentration not given here
Note to self: class = bucket of z-score, per A: < -0.09; B: ≥ -0.09 and < 1; C: ≥ 1

Below are worked cases with known answers.
molecule	group
CCOC(=O)C=Cc1cc(F)ccc1O	A
O=C1C2C=CC(C(O)c3ccc(I)cc3)N(Nc3ccccc3)C2C(=O)N1c1ccccc1 (centres undefined)	B
C=C/C=C/[C@@H]1C(=C)CN([C@@H](Cc2ccccc2)C(=O)OC)[C@H]1[C@@H](O)Cc1ccccc1	B
CC(CO)N1C(=O)[C@@H]2[C@H]3C(=O)OCC=C[C@H]3OC23C=CCN(c2ccc(Cl)cc2)C(=O)[C@@H]13 (some centres undefined)	A
C=C(/C(=C/C[C@H](OC(=O)c1ccncc1)c1ccccc1OCCO)c1cnc2ccccc2c1)C(C)C	C

Input COC(=O)C1=CC(CCCO)=CC(c2ccc(CN3CCCC3)cc2)N(Cc2cc3c(cc2Br)OCO3)C=C1C(=O)OC (centres undefined) ; output its category
A

The entry to classify is C=CCOC(=O)[C@H]1[C@@H]2C(=O)O[C@@H](c3ccccc3)[C@@H](c3ccccc3)N2[C@@H](c2ccc(OCCOC(=O)[C@H]3C[C@H]4C(=O)N[C@@H](CCCCNC(C)=O)C(=O)N4[C@H]3c3cccc(OCCO)c3)cc2)[C@]12C(=O)Nc1ccc(I)cc12 ; which class holds it?
C

* * *

Recorded composite z-score values for a group of compounds are listed next.
biological target: Calmodulin-1 (Homo sapiens); assay: calcium-bound CALM1 binders on microarrays, profiling panel, artefact control for SMM control-protein annotation, biochemical, small-molecule microarray, Cy5-labelled CALM1, plus calcium (AID 1112); conditions: Cy5-CALM1 binding fluorescence, higher = more signal;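 also: score merges spot fluorescence with signal to noise from triplicate slides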
Would you mind answering with just the numeric figure?

In the examples that follow, each entry is paired with its recorded composite z-score.
compound	composite z-score
C=C(/C(=C/C[C@@H](OC(C)=O)c1ccc(CO)o1)c1cc(C(=O)OC)ccc1OC)C(C)C	-0.657
O=C(N1CCOCC1)[C@@]1(CCS(=O)(=O)c2ccccc2)N=C(c2ccc(OCCCO)cc2)O[C@H]1c1ccccc1	1.33
CCOC(=O)C[C@H]1[C@H](OC(=O)c2ccccc2-c2ccccc2)[C@@H](NC(=O)c2ccc3ccccc3n2)c2cc(OCCCO)ccc2N1C(=O)c1ccccc1	-0.457
C=C(COC)C(=O)CC[C@H](OC(C)=O)c1ccc(OCCO)cc1	-1.08
CCOC(=O)C1=CCC(c2ccccc2)N(S(=O)(=O)c2ccc([N+](=O)[O-])cc2)C1 (configuration not stated)	-0.0871
COCCOC(=O)N1C(=O)[C@@]2(c3cc(C#CCCO)ccc31)[C@H](C(N)=O)[C@H]1C(=O)O[C@H](c3ccccc3)[C@H](c3ccccc3)N1[C@@H]2c1ccc(OCCO)cc1	-0.351

Tell me the measured composite z-score of [N-]=[N+]=Nc1ccccc1C[C@@]1(C(=O)O)N=C(c2ccc(OCCCO)cc2)O[C@@H]1c1ccccc1N=[N+]=[N-] , please.
1.12

* * *

assay: yeast growth modulation, basal conditions, primary screen, YJM789 clinical isolate, OD600, 24 h (AID 1089);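 also: growth of clinical yeast isolate S. cerevisiae YJM 789 seeded 1000 cells per well; test concentration not given here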; settings: S. cerevisiae YJM789 growth, higher = more signal, called active from +8 up or from −8 down
Answer No if z-score is under 0.7, and Yes if it is 0.7 or more.

For orientation, consider the following solved cases.
compound	group
COC(=O)[C@@]1(Cc2ccccc2)[C@H]2c3cc(C(=O)N(C)C)n(CCn4cc([N+](=O)[O-])nc4C)c3C[C@H]2CN1C(=O)c1ccccc1	No
COc1cc(NN2C(C(O)c3ccc(I)cc3)C=CC3C(=O)N(c4ccccc4)C(=O)C32)cc(OC)c1OC (stereo unspecified)	Yes
C=CCC(OC(C)=O)[C@@H]1[C@@H](N(Cc2ccc(-c3cccc(C(F)(F)F)c3)o2)C(=O)c2ccc(C)cc2)c2cc(OCCCO)ccc2N1C(=O)Cc1ccc(OC)cc1 (stereo partly specified)	Yes
C=C(COC)/C(=C/C[C@@H](OC(=O)c1ccncc1)c1ccccc1OCCO)c1cc(C(=O)OC)ccc1OC	No
COCCOC(=O)N1C(=O)[C@@]2(c3cc(C#CC4(O)CCCCCC4)ccc31)[C@H](c1ccc(OCCO)cc1)N1[C@H](c3ccccc3)[C@H](c3ccccc3)OC(=O)[C@H]1[C@@H]2C(=O)Nc1nc2ccccc2s1	Yes

Next, consider the following compound.
I'd appreciate it if you could say whether CCCCCN1CC=CC23O[C@@H]4/C=C\CCC(C)OC(=O)C4[C@H]2C(=O)N(CCCCCCO)[C@@H]3C1=O (stereo partly specified) has z-score at least equal to 0.7.
Yes

* * *

assay: COS7 lysate on small-molecule microarray, probe aHis, 635 nm (AID 1123); conditions: COS7 cell lysate, fluorescence, higher = more signal;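 also: z-score combines 667nm fluorescence intensity with signal-to-noise per printed compound spot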
recorded-endpoint: composite z-score
Give a plain numeric answer without units written out.

// solved cases for composite z-score follow
smiles-input	composite z-score
[N-]=[N+]=Nc1ccccc1[C@@H]1OC(c2ccc(OCCCO)cc2)=N[C@]1(Cc1ccccc1)C(=O)NCc1ccccc1	2.74
COCCOC(=O)N1C(=O)[C@@]2(c3cc(C#CC4=CCCCC4)ccc31)[C@H](c1ccc(O)cc1)N1[C@H](c3ccccc3)[C@H](c3ccccc3)OC(=O)[C@H]1[C@@H]2C(=O)NC[C@H](O)c1ccccc1	1.68
C[C@]1(C(=O)O)c2ccccc2C(=O)N(Cc2ccc(OC(F)(F)F)cc2)[C@H]1c1ccc(CO)cc1	1.61
COCCOC(=O)N1C(=O)[C@@]2(c3cc(C#CCC(C(=O)OC)C(=O)OC)ccc31)[C@H](C(=O)NC[C@H](O)c1ccccc1)[C@H]1C(=O)O[C@H](c3ccccc3)[C@H](c3ccccc3)N1[C@@H]2c1ccc(OCCO)cc1	1.66
Cc1cccc([C@H]2C[C@H]3C(I)=C[C@@H]2C(=O)[C@]32CO2)c1	-0.55

We now examine a further molecule.
Requested read-out: composite z-score. Entry: O=C(CS)NCCCCCCNC(=O)[C@@H]1C[C@@H]2C(=O)NCC(=O)N2[C@@H]1c1ccc(O)cc1
2.94

* * *

Let's look at some compounds and their measured z-score.
test: S. cerevisiae growth modulation with rapamycin, primary screen, strain BY4716, OD600, 96 h (AID 1091); settings: higher = more signal, called active from +8 up or from −8 down; also: test concentration not given here
No unit in the answer, only the number.

# annotated cases, reported z-score shown
compound	z-score
COCCCNC(=O)[C@@]1(Sc2ccc(C)cc2)CC(=O)N(C(C)C)[C@@H]1c1ccc(CO)cc1I	0.445
C=CC[C@H](OC(=O)Nc1ccc(SC)cc1)c1ccc(OCCO)cc1	-0.598

Name the recorded z-score for COc1ccc(C(O)C2C=CC3C(=O)N(c4ccccc4)C(=O)C3N2Nc2ccccc2F)cc1 (stereo not given) .
-0.246

I have this compound here, COc1cc2c(cc1OC)CN(C(=O)[C@@H]1[C@H]3C(=O)O[C@H](c4ccccc4)[C@H](c4ccccc4)N3[C@H](c3ccc(O)cc3)[C@@]13C(=O)Nc1ccc(C#CCCO)cc13)CC2 , and I need its recorded z-score.
1.81

So what does the record say about z-score for C=C(C(=O)CC[C@@H](OC(=O)c1ccccc1-c1ccccc1C(=O)O)c1ccccc1OCCO)C(C)C ?
-1.88

* * *

z-score reference
assay: E. coli acrAB mutant growth effects, primary screen, E. coli filamentation inducers, strain DRC39, OD650, 24 h (AID 1178); settings: higher = more signal, called active from +8 up or from −8 down;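 also: growth measured as culture turbidity by optical density at 650 nm; test concentration not given here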
// return a plain number; no unit text

// worked examples, z-score included
compound	z-score
C=CCC(OC(C)=O)[C@@H]1[C@@H](N(Cc2cccc3ccccc23)C(=O)c2ccc(-c3ccccc3)cc2)c2cc(OCCCO)ccc2N1C(=O)c1ccc(-c2ccccc2)cc1 (stereo partly drawn)	-0.277
[N-]=[N+]=NCc1ccccc1C[C@]1(C(=O)N2CCOCC2)COC(c2ccc(OCCCO)cc2)=N1	2.56
CN1C(=O)C2C(C1=O)C1C=C(CCCO)C2C(c2cccs2)N1Cc1cc2c(cc1Br)OCO2 (stereo not drawn)	0.19
NC(=O)[C@@H]1[C@H]2C(=O)O[C@H](c3ccccc3)[C@H](c3ccccc3)N2[C@H](c2ccc(OCCO)cc2)[C@@]12C(=O)Nc1ccc(C#CCCO)cc12	0.544
CN1C(=O)[C@@]2(Cc3ccccc3)N=C(c3ccc(OCCCO)cc3)O[C@H]2c2ccccc21	0.432
C=C[C@@H](OC)[C@H](OC(=O)Nc1ccc(OC)cc1)c1ccc(OC)c(O)c1	0.724
CN(C)C(=O)[C@@]1(Cc2ccccc2N=[N+]=[N-])N=C(c2ccc(OCCCO)cc2)O[C@H]1c1ccccc1	-0.105
COc1cc2c(cc1OC)CN(C(=O)[C@@H]1[C@H]3C(=O)O[C@H](c4ccccc4)[C@H](c4ccccc4)N3[C@H](c3ccc(O)cc3)[C@@]13C(=O)Nc1ccc(C#CCCO)cc13)CC2	0.437

Bench note: what z-score did COCCOC(=O)N1C(=O)[C@@]2(c3cc(C#CCC(C(=O)OC)C(=O)OC)ccc31)[C@H](c1ccc(OCCO)cc1)N1[C@H](c3ccccc3)[C@H](c3ccccc3)OC(=O)[C@H]1[C@@H]2C(=O)Nc1nc2ccccc2s1 show?
1.18

// returns reported z-score for input CC(C)C[C@@H]1NC(=O)[C@@]23C(=O)N[C@@H](Cc4ccccc4)C2[C@H](C)[C@@]2(C)O[C@H]2C3/C=C/C/C=C\CNC(=O)[C@@H](C)NC1=O (stereo partly drawn)
1.65

Bench note: what z-score did CCOC(=O)C[C@H]1[C@H](OC(=O)c2cc3ccccc3oc2=O)[C@@H](NC(=O)c2ccc3ccccc3c2)c2cc(OCCCO)ccc2N1C(=O)Cc1ccc(OC)cc1 show?
0.406

// z-score lookup, key: COC(=O)C(CC#Cc1ccc2c(c1)[C@]1(C(=O)N2)[C@H](c2ccc(O)cc2)N2[C@H](c3ccccc3)[C@H](c3ccccc3)OC(=O)[C@H]2[C@@H]1C(=O)N1CCCCCCC1)C(=O)OC
0.196

Item under review: C=C(COC)C(=O)CC[C@H](OC(C)=O)c1ccc(OCCO)cc1 . Reported z-score?
-0.238
